# Method description: chemical genetic growth profiling, strain panel (AID 1159580);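 note: tested at 20 µM; growth read once vehicle control cultures reached saturation at 30 °C; lower values mean less growth of the strain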
# Conditions: S. cerevisiae deletion strains, growth OD, locus YOR231W, strain MKK1, active compounds read low
The campaign covered roughly 5,500 compounds. About 2,000 (36%) were called active. Another 18% or so got no clear call; they are omitted. The list shows a part of the results.
Please use satisfied for normalized growth under 1 and not satisfied for everything else, ties included.

>>> df
                                   molecule    group_label
0  CCn1cc(C(=O)O)c(=O)c2cc(F)c(N3CCNC(C)C3)c(F)c21 (stereo unspecified)  not satisfied
1    O=C(ON=C1CCCCC1)c1ccc([N+](=O)[O-])cc1      satisfied
2    CCN(CC)Cc1ccc(Nc2ccnc3cc(Cl)ccc23)cc1O  not satisfied
3         CC1(C)CC(=O)C=C(Sc2nc3ccccc3o2)C1      satisfied
